Cited source for all entries: patent US4680283A

tested-target: 125I-BH-SP binding sites in rat brain cortex membranes (Rattus norvegicus)
Construct: from tissue; host or cells: rat brain cortex membranes
Sequence (P14600 whole entry): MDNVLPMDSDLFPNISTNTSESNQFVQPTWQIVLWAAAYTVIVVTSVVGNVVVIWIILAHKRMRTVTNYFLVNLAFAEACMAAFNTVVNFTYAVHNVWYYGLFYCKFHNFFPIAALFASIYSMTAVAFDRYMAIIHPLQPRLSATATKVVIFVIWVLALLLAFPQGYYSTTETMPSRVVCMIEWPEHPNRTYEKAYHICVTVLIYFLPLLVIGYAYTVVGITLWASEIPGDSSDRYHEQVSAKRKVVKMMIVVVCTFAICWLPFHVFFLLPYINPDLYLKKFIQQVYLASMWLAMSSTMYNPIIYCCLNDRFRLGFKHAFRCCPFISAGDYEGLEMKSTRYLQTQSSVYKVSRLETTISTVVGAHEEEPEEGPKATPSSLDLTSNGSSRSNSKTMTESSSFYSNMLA
measurement-notes: substance P (SP) binding assay (competition for 125I-BH-SP binding sites)
assay-conditions: peptides dissolved in DMSO
measured-property: IC50 (µM)

1. CSCC[C@H](NC(=O)[C@H](CC(C)C)N1CC[C@H](NC(=O)[C@H](Cc2ccccc2)NC(=O)[C@H](Cc2ccccc2)NC(=O)[C@@H]2CCC(=O)N2)C1=O)C(N)=O [L-363,232]
2. CSCC[C@H](NC(=O)[C@H](CC(C)C)N1CC[C@@H](NC(=O)[C@H](Cc2ccccc2)NC(=O)[C@H](Cc2ccccc2)NC(=O)[C@@H]2CCC(=O)N2)C1=O)C(N)=O [L-363,851]
## Input Out of 1 and 2 , name the one with the higher IC50. Identify your selection by its label.
## Output 1
